In this section, each of the molecules is paired with its reported Selectivity for GGDPS to FDPS.
experimental-target: Recombinant GGDPS (Homo sapiens (Human), UniProt O95749)
Sequence (O95749 whole entry): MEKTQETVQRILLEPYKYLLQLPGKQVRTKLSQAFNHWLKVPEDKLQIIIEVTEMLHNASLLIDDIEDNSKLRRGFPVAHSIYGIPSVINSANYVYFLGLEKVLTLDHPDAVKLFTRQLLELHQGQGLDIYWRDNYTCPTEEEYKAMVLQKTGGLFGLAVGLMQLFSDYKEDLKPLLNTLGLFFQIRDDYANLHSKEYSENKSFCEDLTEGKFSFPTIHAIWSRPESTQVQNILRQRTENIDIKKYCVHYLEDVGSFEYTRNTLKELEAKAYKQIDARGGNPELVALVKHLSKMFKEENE
assay-name: GGDPS enzyme assay
Assay type: biochemical
conditions: ratio FDPS IC50 / GGDPS IC50
Reply briefly: the number, and no unit.

CC(C)=CCC/C(C)=C/Cn1cc(CC(C)(P(=O)([O-])[O-])P(=O)([O-])[O-])nn1.[Na+].[Na+].[Na+].[Na+] | 345
CC(C)=CCCC(C)=CCCn1cc(CC(C)(P(=O)([O-])[O-])P(=O)([O-])[O-])nn1.[Na+].[Na+].[Na+].[Na+] | 49
CC(C)=CCC/C(C)=C\Cn1cc(CC(C)(P(=O)([O-])[O-])P(=O)([O-])[O-])nn1.[Na+].[Na+].[Na+].[Na+] | 693
CC(C)=CCCC(C)=CCn1cc(CC(C)(P(=O)([O-])[O-])P(=O)([O-])[O-])nn1.[Na+].[Na+].[Na+].[Na+] | 241
CCC(Cc1cn(C/C=C(\C)CCC=C(C)C)nn1)(P(=O)(O)O)P(=O)(O)O | 16

Let us move to another entry and its Selectivity for GGDPS to FDPS.
Exercise: Any idea what its Selectivity for GGDPS to FDPS is? The molecule is CC(C)=CCC/C(C)=C/CCn1cc(CC(C)(P(=O)([O-])[O-])P(=O)([O-])[O-])nn1.[Na+].[Na+].[Na+].[Na+]
Key: 3.5

Origin of measurements: patent US12083137B2
